Target: Serine/threonine-protein kinase PLK4 (Homo sapiens) (UniProt O00444)
Sequence (O00444 whole entry): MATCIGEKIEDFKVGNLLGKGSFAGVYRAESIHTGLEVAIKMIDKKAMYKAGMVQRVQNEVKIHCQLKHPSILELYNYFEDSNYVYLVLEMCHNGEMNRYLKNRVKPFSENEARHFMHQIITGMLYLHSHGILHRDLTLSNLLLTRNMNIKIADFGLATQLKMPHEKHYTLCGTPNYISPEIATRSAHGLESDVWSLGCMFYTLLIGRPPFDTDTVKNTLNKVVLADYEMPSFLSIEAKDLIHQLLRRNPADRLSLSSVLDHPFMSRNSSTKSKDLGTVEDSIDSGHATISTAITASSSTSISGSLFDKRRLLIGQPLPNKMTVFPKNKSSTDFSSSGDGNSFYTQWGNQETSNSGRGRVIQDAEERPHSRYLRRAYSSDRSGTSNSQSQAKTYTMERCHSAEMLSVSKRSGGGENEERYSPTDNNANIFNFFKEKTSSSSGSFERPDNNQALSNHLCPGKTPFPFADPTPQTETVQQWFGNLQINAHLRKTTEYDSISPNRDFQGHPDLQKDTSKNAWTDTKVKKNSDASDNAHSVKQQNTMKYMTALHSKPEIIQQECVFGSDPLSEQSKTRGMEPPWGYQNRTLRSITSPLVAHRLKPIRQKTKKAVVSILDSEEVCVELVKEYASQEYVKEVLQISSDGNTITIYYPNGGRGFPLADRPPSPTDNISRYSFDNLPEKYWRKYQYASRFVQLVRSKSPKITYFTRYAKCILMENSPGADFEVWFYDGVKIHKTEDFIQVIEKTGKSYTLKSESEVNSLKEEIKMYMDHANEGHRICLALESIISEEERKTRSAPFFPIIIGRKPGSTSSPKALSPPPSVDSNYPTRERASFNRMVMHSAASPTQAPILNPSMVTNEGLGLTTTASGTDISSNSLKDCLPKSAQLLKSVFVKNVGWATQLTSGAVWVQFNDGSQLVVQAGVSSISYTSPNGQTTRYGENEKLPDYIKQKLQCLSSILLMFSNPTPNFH
Assay: Inhibition of SAK up to 100 uM
Calls of active or inactive are those of the source. The rule behind the calls is not given here.
measured.parameter: inhibition

Nc1ncnc2ncn(CC(=O)c3ccccc3)c12 ... inactive
Nc1ncnc2c1ncn2CC(=O)c1ccccc1 ... inactive
Nc1ncnc2c1ncn2CC(=O)c1cccnc1 ... inactive

----------
Biological target: NUAK family SNF1-like kinase 1 (Homo sapiens)
Assay: Inhibition of ARK5 up to 100 uM
Active and inactive are the calls of the source. The rule behind the calls is not given here.
measured.parameter: inhibition

COc1ncnc2c1ncn2CC(=O)c1ccccc1 ... inactive
Nc1ncnc2c1ncn2CC(=O)c1c[nH]c2ccccc12 ... inactive
Nc1ncnc2ncn(CC(=O)c3c[nH]c4ccccc34)c12 ... inactive
CN(C)c1ncnc2c1ncn2CC(=O)c1c[nH]c2ccccc12 ... inactive
COc1ncnc2ncn(CC(=O)c3ccccc3)c12 ... inactive
Nc1ncnc2c1ncn2CC(=O)c1cccnc1 ... inactive
Nc1ncnc2c1ncn2CC(=O)c1ccccn1 ... inactive
Nc1ncnc2c1ncn2CC(=O)c1ccccc1 ... inactive
Nc1ncnc2ncn(CC(=O)c3ccccc3)c12 ... inactive
